Consider the following molecules; for each one, report its log10(EC50).
target: KRAS-G12D protein (Homo sapiens, UniProt P01116, G12D); assay: SOS-mediated nucleotide exchange assay (BODIPY-GDP / Tb-streptavidin TR-FRET); format: biochemical
Sequence (P01116 1-188 isoform P01116-2 G12D): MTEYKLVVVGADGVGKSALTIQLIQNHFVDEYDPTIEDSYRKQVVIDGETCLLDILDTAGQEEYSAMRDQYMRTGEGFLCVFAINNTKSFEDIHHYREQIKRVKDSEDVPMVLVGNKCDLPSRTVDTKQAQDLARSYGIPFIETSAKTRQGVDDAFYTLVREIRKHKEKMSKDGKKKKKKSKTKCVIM
*1 amine or outer side, *2 acyl side, *3 side chain or, on linkers, in order; H or OH if unused. Where a SMILES comes first, the peptide text is derived from it. Bridges are numbered along the chain shown (N, C = ends). [ ]: non-standard residue; d: D form. Phe(4-guanidino) = N=C(N)Nc1ccc(C[C@H](N)C(=O)O)cc1; Ala(pyrimidin-5-yl) = N[C@@H](Cc1cncnc1)C(=O)O; NMeArg(Me) = CNC(=N)NCCC[C@H](NC)C(=O)O; NMeAha = CN[C@@H](CCN=[N+]=[N-])C(=O)O; Phe(4-F) = N[C@@H](Cc1ccc(F)cc1)C(=O)O; X40 = CC(C)(F)C[C@H](N[*:1])C(=O)[*:2]; NHCH2CH2SCH2CO = O=C(CSCCN[*:1])[*:2]; Phe(2-F) = N[C@@H](Cc1ccccc1F)C(=O)O; NMe3Pal = CN[C@@H](Cc1cccnc1)C(=O)O; X1 = O=C(C12CC(CN[*:1])(C1)C2)[*:2]; NMeF = CN[C@@H](Cc1ccccc1)C(=O)O; PhLac = O=C(O)[C@@H](O)Cc1ccccc1; 3Pal = N[C@@H](Cc1cccnc1)C(=O)O; Ahp(2) = CCCCC[C@H](N)C(=O)O; Cba = N[C@@H](CC1CCC1)C(=O)O; hLeu = CC(C)CC[C@H](N)C(=O)O; αMeC = C[C@](N)(CS)C(=O)O; NMeA = CN[C@@H](C)C(=O)O; Nle = CCCC[C@H](N)C(=O)O; Nva = CCC[C@H](N)C(=O)O
Please keep in mind that the values are log10 of EC50 expressed in nM.

Req: Return the recorded log10(EC50) value; entry: CCCCC[C@@H]1NC(=O)[C@H](Cc2ccc(OC)cc2)NC(=O)[C@H](CC2CCC2)NC(=O)[C@H](Cc2ccc(C)nc2)NC(=O)[C@H](CCCNC(=N)N)NC(=O)[C@H](Cc2ccccc2)NC(=O)CSC[C@@](C)(C(N)=O)NC(=O)[C@H](Cc2ccccc2)N(C)C1=O [compound 364]
Resp: 1.53

Req: Return the recorded log10(EC50) value; entry: CC(C)CC[C@@H]1NC(=O)[C@H](Cc2ccccc2F)NC(=O)[C@H](CC(C)(C)F)NC(=O)[C@H](Cc2cncnc2)NC(=O)[C@H](C)N(C)C(=O)[C@H](Cc2ccccc2)OC(=O)C23CC(CNC(=O)[C@H](Cc4ccccc4)N(C)C1=O)(C2)C3 [compound 136] (cyclo([NMeA][Ala(pyrimidin-5-yl)][X40][Phe(2-F)][hLeu][NMeF][X1][PhLac]))
Resp: 2.06

Req: Return the recorded log10(EC50) value; entry: CCC[C@@H]1NC(=O)[C@H](Cc2ccc(OC)cc2)NC(=O)[C@H](CC(C)C)NC(=O)[C@H](Cc2cccnc2)NC(=O)[C@H](CCCNC(=N)N)NC(=O)[C@H](Cc2ccc(F)cc2)NC(=O)CSCCNC(=O)[C@H](Cc2ccccc2)N(C)C1=O [compound 87] (cyclo([3Pal]LY(Me)[Nva][NMeF][NHCH2CH2SCH2CO][Phe(4-F)]R))
Resp: 3.20

Req: Return the recorded log10(EC50) value; entry: CCCC[C@@H]1NC(=O)[C@H](COC)NC(=O)[C@H](CC2CCC2)NC(=O)[C@H](Cc2cccnc2)NC(=O)[C@H](CCCNC(=N)N)NC(=O)[C@H](Cc2ccccc2)NC(=O)CSC[C@@](C)(C(N)=O)NC(=O)[C@H](Cc2ccccc2)N(C)C1=O [compound 52] ({CH2CO}-FR[3Pal][Cba]S(Me)[Nle][NMeF][αMeC]-NH2; thioether N-8)
Resp: 2.97

Req: Return the recorded log10(EC50) value; entry: CCCC[C@@H]1NC(=O)[C@H](Cc2cncnc2)NC(=O)[C@H](CCN=[N+]=[N-])N(C)C(=O)[C@H](Cc2ccccc2)OC(=O)C23CC(CNC(=O)[C@H](Cc4cccnc4)N(C)C(=O)[C@H](CCCC)NC(=O)[C@H](Cc4ccccc4F)NC1=O)(C2)C3 [compound 242] (cyclo([NMe3Pal][X1][PhLac][NMeAha][Ala(pyrimidin-5-yl)][Nle][Phe(2-F)][Nle]))
Resp: 1.91

Req: Return the recorded log10(EC50) value; entry: CCCCC[C@@H]1NC(=O)[C@H](Cc2ccc(OC)cc2)NC(=O)[C@H](CC2CCC2)NC(=O)[C@H](Cc2ccc(NC(=N)N)cc2)NC(=O)[C@H](CCCNC(=N)NC)N(C)C(=O)[C@H](Cc2ccccc2)NC(=O)CSC[C@@](C)(C(N)=O)NC(=O)[C@H](Cc2ccccc2)N(C)C1=O [compound 380] ({CH2CO}-F[NMeArg(Me)][Phe(4-guanidino)][Cba]Y(Me)[Ahp(2)][NMeF][αMeC]-NH2; thioether N-8)
Resp: 0.23
